// UniProtKB P32745 IC50 records
Sequence (P32745 whole entry): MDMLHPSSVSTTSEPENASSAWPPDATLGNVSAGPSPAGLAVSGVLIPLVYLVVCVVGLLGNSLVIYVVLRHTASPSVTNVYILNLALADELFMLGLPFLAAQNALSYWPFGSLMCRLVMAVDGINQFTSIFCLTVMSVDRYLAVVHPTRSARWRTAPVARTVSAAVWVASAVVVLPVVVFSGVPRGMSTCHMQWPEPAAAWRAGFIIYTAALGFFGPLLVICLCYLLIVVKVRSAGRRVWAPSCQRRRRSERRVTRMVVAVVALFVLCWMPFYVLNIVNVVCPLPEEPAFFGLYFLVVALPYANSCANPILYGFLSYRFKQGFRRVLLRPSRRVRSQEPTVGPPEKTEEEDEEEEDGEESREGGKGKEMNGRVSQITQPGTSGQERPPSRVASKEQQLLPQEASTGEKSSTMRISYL
Answers are plain numbers, in nM.

CC(C)[C@@H]1NC(=O)[C@H](CCCCN)NC(=O)[C@@H](Cc2c[nH]c3ccccc23)NC(=O)[C@H](Cc2ccc(O)cc2)NC(=O)[C@@H](NC(=O)[C@H](N)Cc2ccc3ccccc3c2)CSSC[C@H](C(=O)N[C@@H](Cc2ccc3ccccc3c2)C(N)=O)NC1=O (stereo in doubt; 23) ... 292
CC(C)[C@@H]1NC(=O)[C@H](CCCCN)NC(=O)[C@@H](Cc2c[nH]c3ccccc23)NC(=O)[C@H](Cc2ccc(O)cc2)NC(=O)[C@H](NC(=O)[C@@H](N)Cc2ccc3ccccc3c2)CSSC[C@@H](C(=O)N[C@@H](Cc2ccc3ccccc3c2)C(N)=O)NC1=O ... 161

In the following, a different compound is considered.
Field IC50 (entry `CC(C)[C@@H]1NC(=O)[C@H](CCCCN)NC(=O)[C@@H](Cc2c[nH]c3ccccc23)NC(=O)[C@H](Cc2ccc(O)cc2)NC(=O)[C@H](NC(=O)[C@@H](N)Cc2ccc3ccccc3c2)CSSC[C@@H](C(=O)N[C@H](C(N)=O)[C@@H](C)O)NC1=O` ) reads 733

----------
target: Somatostatin receptor type 5 (Homo sapiens, UniProt P35346); assay: Binding affinity towards cloned human somatostatin 5 (hsst) receptor
Sequence (P35346 whole entry): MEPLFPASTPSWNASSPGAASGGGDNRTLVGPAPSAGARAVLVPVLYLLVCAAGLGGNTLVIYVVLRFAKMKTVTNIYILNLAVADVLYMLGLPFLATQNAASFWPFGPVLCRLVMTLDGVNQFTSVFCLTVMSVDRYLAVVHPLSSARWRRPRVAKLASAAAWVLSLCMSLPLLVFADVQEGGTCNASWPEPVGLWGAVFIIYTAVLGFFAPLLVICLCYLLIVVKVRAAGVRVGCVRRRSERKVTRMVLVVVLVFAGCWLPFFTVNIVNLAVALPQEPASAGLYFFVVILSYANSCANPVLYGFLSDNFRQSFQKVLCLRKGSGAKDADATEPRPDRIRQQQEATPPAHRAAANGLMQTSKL
Positions of bridges follow the written chain, without caps; N, C: chain ends. Non-standard residues stand in square brackets, D forms with d. Residues, ends and D or L forms follow the SMILES beside them. dPhe(4-Cl) = N[C@H](Cc1ccc(Cl)cc1)C(=O)O; 2Nal = N[C@@H](Cc1ccc2ccccc2c1)C(=O)O; d2Nal = N[C@H](Cc1ccc2ccccc2c1)C(=O)O
ENDPOINT: pKi
Give bare numbers, as −log10 of the molar value.

CC(C)[C@@H]1NC(=O)[C@H](CCCCN)NC(=O)[C@@H](Cc2c[nH]c3ccccc23)NC(=O)[C@H](Cc2ccc(O)cc2)NC(=O)[C@H](NC(=O)[C@@H](N)Cc2c[nH]c3ccccc23)CSSC[C@@H](C(=O)N[C@H](Cc2ccc3ccccc3c2)C(N)=O)NC1=O (H-W[dC]Y[dW]KVC[d2Nal]-NH2; disulfide 2-7) ... 6.66
CC(=O)N[C@@H](Cc1ccc2ccccc2c1)C(=O)N[C@@H]1CSSC[C@@H](C(=O)N[C@@H](Cc2ccc3ccccc3c2)C(N)=O)NC(=O)[C@H](C(C)C)NC(=O)[C@H](CCCCN)NC(=O)[C@@H](Cc2c[nH]c3ccccc23)NC(=O)[C@H](Cc2ccc(O)cc2)NC1=O (Ac-[2Nal][dC]Y[dW]KVC[2Nal]-NH2; disulfide 2-7) ... 6.89

In the following, a different compound is considered.
Field pKi (entry CC(C)[C@H](NC(=O)[C@H](CCCCN)NC(=O)[C@@H](Cc1c[nH]c2ccccc12)NC(=O)[C@H](Cc1ccc(O)cc1)NC(=O)[C@@H](Cc1ccc(Cl)cc1)NC(=O)[C@@H](N)Cc1ccc2ccccc2c1)C(=O)N[C@@H](Cc1ccccc1)C(=O)N[C@H](C(N)=O)[C@@H](C)O (H-[2Nal][dPhe(4-Cl)]Y[dW]KVFT-NH2) ) reads 5.74

----------
Positions of bridges follow the written chain, without caps; N, C: chain ends. Non-standard residues stand in square brackets, D forms with d. Residues, ends and D or L forms follow the SMILES beside them. Phe(4-NO2) = N[C@@H](Cc1ccc([N+](=O)[O-])cc1)C(=O)O; 2Nal = N[C@@H](Cc1ccc2ccccc2c1)C(=O)O
// Somatostatin receptor type 1 (Homo sapiens) pIC50 records
Numbers only, as −log10 of the molar value.

CC(C)[C@@H]1NC(=O)[C@H](CCCCN)NC(=O)[C@@H](Cc2c[nH]c3ccccc23)NC(=O)[C@H](Cc2ccc(O)cc2)NC(=O)[C@@H](NC(=O)[C@H](N)Cc2ccc3ccccc3c2)CSSC[C@H](C(=O)N[C@@H](Cc2ccc3ccccc3c2)C(N)=O)NC1=O (stereo in doubt; 27) ... 6.00
CC(C)[C@@H]1NC(=O)[C@H](CCCCN)NC(=O)[C@@H](Cc2c[nH]c3ccccc23)NC(=O)[C@H](Cc2ccc(O)cc2)NC(=O)[C@H](NC(=O)[C@@H](N)Cc2ccc([N+](=O)[O-])cc2)CSSC[C@@H](C(=O)N[C@@H](Cc2ccc(O)cc2)C(N)=O)NC1=O (H-[Phe(4-NO2)][dC]Y[dW]KVCY-NH2; disulfide 2-7) ... 5.49

In the following, a different compound is considered.
Field pIC50 (entry CC(C)[C@@H]1NC(=O)[C@H](CCCCN)NC(=O)[C@@H](Cc2c[nH]c3ccccc23)NC(=O)[C@H](Cc2c[nH]cn2)NC(=O)[C@H](NC(=O)[C@@H](N)Cc2ccc3ccccc3c2)CSSC[C@@H](C(=O)N[C@@H](Cc2ccc3ccccc3c2)C(N)=O)NC1=O (H-[2Nal][dC]H[dW]KVC[2Nal]-NH2; disulfide 2-7) ) reads 6.00
